Molecular target: estrone sulfatase (Homo sapiens, UniProt P08842)
Sequence (P08842 22-583): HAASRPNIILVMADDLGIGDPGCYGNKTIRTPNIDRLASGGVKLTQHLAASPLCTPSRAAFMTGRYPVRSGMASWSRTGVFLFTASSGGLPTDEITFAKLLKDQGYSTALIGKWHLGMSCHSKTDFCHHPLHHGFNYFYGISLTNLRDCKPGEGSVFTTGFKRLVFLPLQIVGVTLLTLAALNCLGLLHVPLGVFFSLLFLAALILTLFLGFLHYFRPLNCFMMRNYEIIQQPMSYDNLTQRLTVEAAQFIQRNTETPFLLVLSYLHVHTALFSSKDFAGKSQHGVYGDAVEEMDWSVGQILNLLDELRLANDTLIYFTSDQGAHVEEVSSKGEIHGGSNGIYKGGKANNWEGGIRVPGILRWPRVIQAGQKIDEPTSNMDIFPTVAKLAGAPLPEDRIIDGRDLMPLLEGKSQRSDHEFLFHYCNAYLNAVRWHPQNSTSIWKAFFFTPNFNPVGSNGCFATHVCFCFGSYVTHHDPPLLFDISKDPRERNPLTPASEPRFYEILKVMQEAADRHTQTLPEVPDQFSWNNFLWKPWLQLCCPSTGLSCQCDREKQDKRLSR
Assay: Estrone sulfatase whole-cell assay on JEG-3 cells
Type: cell-based
Set-up: The JEG-3 cell line, derived from a human placental choriocarcinoma, is spontaneously very rich in human estrone sulfatase; endogenous in cells; host or cells: JEG-3 (human placental choriocarcinoma), intact cells
Details: 4 h treatment, 3H-E1S, read-out: IC50 (nM) ± S.E.M., inhibition of estrone sulfatase
readout_kind: IC50 (nM)

// known answers, use as guide
                                   compound  unit_spec  measurement
0  NS(=O)(=O)Oc1ccc2c(c1)S(=O)(=O)C(C1CCCCCCCCC1)=C2 [Ex 47]         nM         52.1
1  NS(=O)(=O)Oc1ccc2cc(C3CCCCC3)[s+]([O-])c2c1 (centres unmarked) [Ex 42]         nM            7
2  NS(=O)(=O)Oc1ccc2c(c1)S(=O)(=O)C(C1CCCCC1)=C2 [Ex 44]         nM         10.9
3  NS(=O)(=O)Oc1ccc2c3c(sc2c1)CCCC3 [Ex 64]         nM          566
4  C[C@]12CCC3c4ccc(OS(N)(=O)=O)cc4CCC3C1CCC2=O (some centres unmarked) [EMATE, estrone-3-sulfamate, reference compound]         nM          3.2
5  CC1CCC(c2cc3ccc(OS(N)(=O)=O)cc3s2)CC1 (centres unmarked) [Ex 34]         nM          318

I. CCCC1=Cc2ccc(OS(N)(=O)=O)cc2S1(=O)=O [Ex 52]
II. NS(=O)(=O)Oc1ccc2cc(C3CCCCCC3)sc2c1 [Ex 31]
### Prompt Please let me know which one, I or II , has a lower measured IC50 value. Could you answer with the label of the item you picked?
### Response I
(I: 24.7 nM, II: 102 nM)
